measured target: human Syk (GST-Syk) (Homo sapiens, UniProt P43405)
Construct: A cDNA fragment encoding human Syk openreading frame was cloned; made in house; host or cells: Sf21 insect cells (baculovirus, transfer vector pAcG2T)
measurement protocol: Syk tyrosine kinase inhibitory assay
Format: biochemical
condition context: in vitro; compounds as yielded by solid phase synthesis, purity about 40 to 90%; read-out: Activity grade (IC50 class)
In this section we review reported IC50 values for a set of compounds.

Worked cases, answers included:
[[record]]
compound = "COc1ccc(Nc2nc(-c3ccc(OCCN4CCOCC4)c(OC)c3)cc3nccn23)cc1 [Example 9-96]"
measurement_label = "IC50"
test_value = "< 500 nM"

[[record]]
compound = "CCSc1nc(-c2ccc(OC)c(OCCCN3CCCCC3)c2)cc2nccn12 [Example 5-6]"
measurement_label = "IC50"
test_value = "500 to 2000 nM"

[[record]]
compound = "CCSc1nc(-c2ccc(OC)nc2)cc2nccn12 [Example 1-2]"
measurement_label = "IC50"
test_value = "2000 to 10000 nM"

[[record]]
compound = "CCSc1nc(-c2ccc(OCCCN3CCN(C)CC3)c(OC)c2)cc2nccn12 [Example 5-8]"
measurement_label = "IC50"
test_value = "< 500 nM"

[[record]]
compound = "CCCCNS(=O)(=O)c1cccc(Nc2nc(-c3ccc(OC)c(OC)c3)cc3nccn23)c1 [Example 11-73]"
measurement_label = "IC50"
test_value = "< 500 nM"


## Task Item COc1ccc(-c2cc3nccn3c(Sc3nc[nH]n3)n2)cc1OC [Example 13-29] : provide IC50
## Result < 500 nM

## Task Item CCN(CCO)c1ccc(Nc2nc(-c3ccc(OC)c(OC)c3)cc3nccn23)cc1 [Example 11-68] : provide IC50
## Result < 500 nM

## Task Item CCSc1nc(-c2ccc3c(c2)OCCO3)cc2nccn12 [Example 1-13] : provide IC50
## Result 500 to 2000 nM

## Task Item COc1ccc(-c2cc3nccn3c(N3CCN(c4ccccc4OC)CC3)n2)cc1OC [Example 9-34] : provide IC50
## Result 2000 to 10000 nM

## Task Item CCN(CC)CCNc1ccc(C(N)=O)c(Nc2nc(-c3ccc(OC)c(OC)c3)cc3nccn23)c1 [Example 12] : provide IC50
## Result < 500 nM

## Task Item CCSc1nc(-c2ccc(OCCN3CC(C)OC(C)C3)c(OC)c2)cc2nccn12 (stereo not drawn) [Example 5-14] : provide IC50
## Result < 500 nM

## Task Item CCSc1nc(-c2ccc(OCCCN3CCSCC3)c(OC)c2)cc2nccn12 [Example 5-9] : provide IC50
## Result < 500 nM

## Task Item COc1ccc(-c2cc3nccn3c(Nc3ccc(CCCC(=O)O)cc3C(N)=O)n2)cc1OC [Example 11-105] : provide IC50
## Result < 500 nM

## Task Item COc1ccc(-c2cc3nccn3c(Sc3cc(C)ccc3C)n2)cc1OC [Example 13-1] : provide IC50
## Result 500 to 2000 nM

## Task Item CCSc1nc(-c2ccc(SC)cc2)cc2nccn12 [Example 1-12] : provide IC50
## Result 500 to 2000 nM

## Task Item COc1ccc(-c2cc3nccn3c(N3CCN(c4ccc([N+](=O)[O-])cc4)CC3)n2)cc1OC [Example 9-35] : provide IC50
## Result 2000 to 10000 nM

## Task Item COc1ccc(-c2cc3nccn3c(Nc3ccc(CC#N)cc3)n2)cc1OC [Example 11-63] : provide IC50
## Result < 500 nM

## Task Item COc1ccc(-c2cc3nccn3c(Nc3cc(N)ccc3C(N)=O)n2)cc1OC [Example 11] : provide IC50
## Result < 500 nM

## Task Item COc1ccc(-c2cc3nccn3c(N3CCCC(CO)C3)n2)cc1OC (stereo not drawn) [Example 9-65] : provide IC50
## Result 500 to 2000 nM

## Task Item COc1ccc(N2CCN(c3nc(-c4ccc(OC)c(OC)c4)cc4nccn34)CC2)cc1 [Example 9-40] : provide IC50
## Result 2000 to 10000 nM

## Task Item COc1ccc(-c2cc3nccn3c(N3CCN(c4ncccn4)CC3)n2)cc1OC [Example 9-41] : provide IC50
## Result 500 to 2000 nM

---

measured target: human Syk (GST-Syk) (Homo sapiens, UniProt P43405)
Construct: A cDNA fragment encoding human Syk openreading frame was cloned; made in house; host or cells: Sf21 insect cells (baculovirus, transfer vector pAcG2T)
measurement protocol: Syk tyrosine kinase inhibitory assay
Format: biochemical
condition context: in vitro; compounds as yielded by solid phase synthesis, purity about 40 to 90%; read-out: Activity grade (IC50 class)
measurement label: IC50

Worked cases, answers included:
[[record]]
molecule = "COc1ccc(-c2cc3nccn3c(N3CCOCC3)n2)cc1OC [Example 9-30]"
test_value = "2000 to 10000 nM"

[[record]]
molecule = "CNC(=O)c1ccccc1Nc1nc(-c2ccc(OC)c(OC)c2)cc2nccn12 [Example 11-99]"
test_value = "< 500 nM"


Consider the additional molecule presented here.
## Task Under human Syk (GST-Syk) (Homo sapiens, UniProt P43405): report IC50 of COc1ccc(-c2cc3nccn3c(N(C)c3ccc(OC(F)(F)F)cc3)n2)cc1OC [Example 11-46] .
## Result 500 to 2000 nM

---

measured target: human Syk (GST-Syk) (Homo sapiens, UniProt P43405)
Construct: A cDNA fragment encoding human Syk openreading frame was cloned; made in house; host or cells: Sf21 insect cells (baculovirus, transfer vector pAcG2T)
measurement protocol: Syk tyrosine kinase inhibitory assay
Format: biochemical
condition context: in vitro; compounds as yielded by solid phase synthesis, purity about 40 to 90%; read-out: Activity grade (IC50 class)
pIC50: −log10 of the molar value.
In this section we review reported pIC50 values for a set of compounds.

[[record]]
item_smiles = "COc1ccc(-c2cc3nccn3c(Nc3ccc(SCC(=O)O)cc3)n2)cc1OC"
test_value = "> 6.30"


## Task Item COc1ccc(-c2cc3nccn3c(Nc3ccc(C(F)(F)F)cc3)n2)cc1OC : provide pIC50
## Result > 6.30

## Task Item CCSc1nc(-c2ccc(OS(C)(=O)=O)c(OC)c2)cc2nccn12 : provide pIC50
## Result 5.70 to 6.30

## Task Item COc1ccc(-c2cc3nccn3c(N(C)c3ccccc3)n2)cc1OC : provide pIC50
## Result > 6.30

## Task Item COc1ccc(-c2cc3nccn3c(Nc3cccc(CO)c3)n2)cc1OC : provide pIC50
## Result > 6.30

## Task Item COc1ccc(-c2cc3nccn3c(NCCN3CCCCC3)n2)cc1OC : provide pIC50
## Result 5.00 to 5.70

## Task Item COc1ccc(-c2cc3nccn3c(N3CCCC3)n2)cc1OC : provide pIC50
## Result 5.70 to 6.30

## Task Item COc1ccc(Nc2nc(-c3ccc(OC)c(OC)c3)cc3nccn23)cc1 : provide pIC50
## Result > 6.30

## Task Item COC(=O)C(C)(C)Cc1ccc(Nc2nc(-c3ccc(OC)c(OC)c3)cc3nccn23)cc1 : provide pIC50
## Result > 6.30

---

measured target: human Syk (GST-Syk) (Homo sapiens)
Construct: A cDNA fragment encoding human Syk openreading frame was cloned; made in house; host or cells: Sf21 insect cells (baculovirus, transfer vector pAcG2T)
measurement protocol: Syk tyrosine kinase inhibitory assay
Format: biochemical
condition context: in vitro; compounds as yielded by solid phase synthesis, purity about 40 to 90%; read-out: Activity grade (IC50 class)
pIC50: −log10 of the molar value.
In this section we review reported pIC50 values for a set of molecules.

Worked cases, answers included:
[[record]]
item_smiles = "COc1ccc(-c2cc3nccn3c(Sc3cccc(Cl)c3Cl)n2)cc1OC"
measurement_label = "pIC50"
test_value = "5.00 to 5.70"

[[record]]
item_smiles = "COc1ccc(-c2cc3ncnn3c(Nc3ccc(CCCC(=O)O)cc3C(N)=O)n2)cc1OC"
measurement_label = "pIC50"
test_value = "> 6.30"

[[record]]
item_smiles = "COc1ccc(Nc2nc(-c3ccc(OC)c(OC)c3)cc3nccn23)cc1NCCN(C)CCO"
measurement_label = "pIC50"
test_value = "5.70 to 6.30"


Consider the additional molecule presented here.
## Task Under human Syk (GST-Syk) (Homo sapiens): report pIC50 of COc1ccc(Nc2nc(-c3ccc(OC)c(OC)c3)cc3nccn23)c(C(N)=O)c1 .
## Result > 6.30

---

In this section we review reported IC50 values for a set of compounds.
measured target: human Syk (GST-Syk) (Homo sapiens, UniProt P43405)
Construct: A cDNA fragment encoding human Syk openreading frame was cloned; made in house; host or cells: Sf21 insect cells (baculovirus, transfer vector pAcG2T)
measurement protocol: Syk tyrosine kinase inhibitory assay
Format: biochemical
condition context: in vitro; compounds as yielded by solid phase synthesis, purity about 40 to 90%; read-out: Activity grade (IC50 class)

[[record]]
compound = "CCSc1nc(-c2ccc(OC)c(OCc3ccccc3)c2)cc2nccn12 [Example 4-1]"
test_value = "500 to 2000 nM"

[[record]]
compound = "COc1ccc(-c2cc3nccn3c(N(C)c3ccc(Cl)cc3)n2)cc1OC [Example 11-45]"
test_value = "500 to 2000 nM"

[[record]]
compound = "CCCCOC(=O)CSc1nc(-c2ccc(OC)c(OC)c2)cc2nccn12 [Example 9-92]"
test_value = "500 to 2000 nM"


## Task Item COc1ccc(-c2cc3nccn3c(Sc3ccc(N4CCN(C)CC4)cc3)n2)cc1OC [Example 13-16] : provide IC50
## Result < 500 nM

## Task Item COc1ccc(-c2cc3nccn3c(N3CCN(CCO)CC3)n2)cc1OC [Example 9-51] : provide IC50
## Result 2000 to 10000 nM

## Task Item COc1ccc(-c2cc3nccn3c(SC3C=CCCC3)n2)cc1OC (centres unmarked) [Example 9-6] : provide IC50
## Result < 500 nM

## Task Item CCSc1nc(-c2ccc(OC(=O)C(C)C)c(OC)c2)cc2nccn12 [Example 3-8] : provide IC50
## Result 500 to 2000 nM

## Task Item COc1ccc(-c2cc3nccn3c(Nc3ccc(Br)cc3Cl)n2)cc1OC [Example 11-88] : provide IC50
## Result < 500 nM

Hello, the source for this data is patent US6911443B2, in case you need it.
